test system: Escherichia coli TOP10; experiment: shrunken log2 fold change of peptide-encoding DNA abundance (4.5 h post-induction vs induction); higher = less antimicrobial activity (less host growth inhibition); details: time post-induction: 4.5 h; library: site-saturation at positions 5, 18, 19, 20
The threshold is inclusive: shrunken log2 fold change of exactly -0.09 counts as Condition met; values below receive Condition not met.

// inclusive: shrunken log2 fold change at least -0.09? input: RRIRWRPPRLPRPRPRPWHVPRP
Condition not met

Another sequence to check: RRIRYRPPRLPRPRPRPSTMPRP
Condition not met

Another sequence to check: RRIRWRPPRLPRPRPRPTGGPRP
Condition met

Another sequence to check: RRIRGRPPRLPRPRPRPTDRPRP
Condition met

Another sequence to check: RRIRARPPRLPRPRPRPNSYPRP
Condition met

Another sequence to check: RRIRQRPPRLPRPRPRPPYTPRP
Condition not met

Another sequence to check: RRIRMRPPRLPRPRPRPVPKPRP
Condition met

Another sequence to check: RRIRTRPPRLPRPRPRPQRFPRP
Condition met

Another sequence to check: RRIRYRPPRLPRPRPRPTAPPRP
Condition not met

Another sequence to check: RRIRFRPPRLPRPRPRPICLPRP
Condition not met

Another sequence to check: RRIRRRPPRLPRPRPRPYYRPRP
Condition not met

Another sequence to check: RRIRMRPPRLPRPRPRPAEGPRP
Condition met

Another sequence to check: RRIRARPPRLPRPRPRPFHHPRP
Condition not met

Another sequence to check: RRIRTRPPRLPRPRPRPVCPPRP
Condition met

Another sequence to check: RRIRSRPPRLPRPRPRPWFCPRP
Condition not met

Another sequence to check: RRIRERPPRLPRPRPRPSYCPRP
Condition not met

Another sequence to check: RRIRKRPPRLPRPRPRPTLAPRP
Condition met

Another sequence to check: RRIRIRPPRLPRPRPRPRKQPRP
Condition met

Another sequence to check: RRIRKRPPRLPRPRPRPDNVPRP
Condition met

Another sequence to check: RRIRVRPPRLPRPRPRPYRWPRP
Condition not met

Another sequence to check: RRIRIRPPRLPRPRPRPVIKPRP
Condition not met

Another sequence to check: RRIRCRPPRLPRPRPRPNSEPRP
Condition not met

Another sequence to check: RRIRGRPPRLPRPRPRPAACPRP
Condition met

Another sequence to check: RRIRERPPRLPRPRPRPPNCPRP
Condition met

Another sequence to check: RRIRIRPPRLPRPRPRPQVFPRP
Condition met

Another sequence to check: RRIRRRPPRLPRPRPRPRPAPRP
Condition met

Another sequence to check: RRIRTRPPRLPRPRPRPLICPRP
Condition not met

Another sequence to check: RRIRHRPPRLPRPRPRPNCHPRP
Condition not met

Another sequence to check: RRIRGRPPRLPRPRPRPTPVPRP
Condition met

Another sequence to check: RRIRCRPPRLPRPRPRPAVMPRP
Condition met

Another sequence to check: RRIRWRPPRLPRPRPRPHHAPRP
Condition met

Another sequence to check: RRIRKRPPRLPRPRPRPWHNPRP
Condition not met

====

test system: Escherichia coli TOP10; experiment: shrunken log2 fold change of peptide-encoding DNA abundance (4.5 h post-induction vs induction); higher = less antimicrobial activity (less host growth inhibition); conditions: time post-induction: 4.5 h; library: site-saturation at positions 5, 18, 19, 20;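 also: peptides expressed intracellularly from a pBAD plasmid library in pooled LB shake-flask culture, induced with 0.3% L-arabinose, DNA abundance read by NGS, three biological replicates, DESeq2 with apeglm shrinkage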
The threshold is inclusive: shrunken log2 fold change of exactly 0.06 counts as true; values below receive false.

// inclusive: shrunken log2 fold change at least 0.06? input: RRIRSRPPRLPRPRPRPNAIPRP
true

Another sequence to check: RRIRFRPPRLPRPRPRPLMGPRP
false

Another sequence to check: RRIRPRPPRLPRPRPRPTQLPRP
true

Another sequence to check: RRIRGRPPRLPRPRPRPTSFPRP
true

Another sequence to check: RRIRARPPRLPRPRPRPYIHPRP
false

Another sequence to check: RRIRLRPPRLPRPRPRPNAWPRP
true

Another sequence to check: RRIRCRPPRLPRPRPRPCGVPRP
false

Another sequence to check: RRIRNRPPRLPRPRPRPCWPPRP
true

Another sequence to check: RRIRYRPPRLPRPRPRPMPRPRP
false

Another sequence to check: RRIRARPPRLPRPRPRPMNHPRP
false

Another sequence to check: RRIRQRPPRLPRPRPRPKQDPRP
false

Another sequence to check: RRIRLRPPRLPRPRPRPRLAPRP
true

Another sequence to check: RRIRMRPPRLPRPRPRPAVMPRP
true

Another sequence to check: RRIRDRPPRLPRPRPRPEWQPRP
false

Another sequence to check: RRIRCRPPRLPRPRPRPEMGPRP
false

Another sequence to check: RRIRVRPPRLPRPRPRPIERPRP
false

Another sequence to check: RRIRIRPPRLPRPRPRPPACPRP
true

Another sequence to check: RRIRFRPPRLPRPRPRPFWLPRP
false

Taken from the supplement of paper PMC9112550.
